target: AChE (Electrophorus electricus, UniProt O42275); construct: purchased Sigma-Aldrich C3389-2KU; test: Kinetic characterization of AChE inhibition (Lineweaver-Burk plot); format: biochemical; conditions: Lineweaver–Burk plots; superscript d not defined; read-out: Ki d
Sequence (O42275 24-633): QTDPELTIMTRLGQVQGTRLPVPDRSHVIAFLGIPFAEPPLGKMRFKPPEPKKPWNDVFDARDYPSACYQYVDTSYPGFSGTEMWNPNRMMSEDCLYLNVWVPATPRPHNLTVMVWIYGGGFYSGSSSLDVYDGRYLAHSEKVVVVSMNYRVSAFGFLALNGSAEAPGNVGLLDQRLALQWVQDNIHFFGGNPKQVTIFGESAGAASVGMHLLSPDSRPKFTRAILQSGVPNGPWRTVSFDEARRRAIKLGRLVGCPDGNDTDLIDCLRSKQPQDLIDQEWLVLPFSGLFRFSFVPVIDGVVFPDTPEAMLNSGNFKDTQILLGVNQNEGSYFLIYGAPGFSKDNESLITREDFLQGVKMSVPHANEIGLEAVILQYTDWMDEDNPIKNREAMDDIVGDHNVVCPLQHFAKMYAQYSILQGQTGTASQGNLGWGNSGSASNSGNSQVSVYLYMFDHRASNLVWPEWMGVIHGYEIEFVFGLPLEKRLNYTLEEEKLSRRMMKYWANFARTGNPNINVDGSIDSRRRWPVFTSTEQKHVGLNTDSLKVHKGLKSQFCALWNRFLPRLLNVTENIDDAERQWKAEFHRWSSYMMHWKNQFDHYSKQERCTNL
Recorded Metric: Ki (nM)
The answer is to be given in nM; state only the numeric part.

If you can, please state the reported Ki value of "COc1ccc([C@@H]2CC(=O)c3c(O)cc(OCC(=O)NCc4ccc(C(F)(F)F)cc4)cc3O2)cc1O" .
3.28

* * *

test: in vitro; settings: human
Recorded Metric: viability at 48 h, 10 µM (%)
Only the number, expressed in %, is required.

Worked examples, 5 compounds total:
{"columns": ["Compound", "viability at 48 h, 10 µM, %"],
 "data": [
  ["COc1ccc(C2CC(=O)c3c(O)cc(OCC(=O)NCc4ccccc4F)cc3O2)cc1O (stereo not drawn)", 98.8],
  ["COc1ccc([C@@H]2CC(=O)c3c(O)cc(OCC(=O)NCc4ccc(C(F)(F)F)cc4)cc3O2)cc1O", 95.8],
  ["COc1ccc(C2CC(=O)c3c(O)cc(OCC(=O)NCc4ccc(Cl)cc4)cc3O2)cc1O (stereo not drawn)", 95.9],
  ["COc1cc(/C=C/C(=O)CC(=O)/C=C/c2ccc(O)c(OC)c2)ccc1O [Curcumin, curcumin, reference compound]", 90.9],
  ["COc1ccc(C2CC(=O)c3c(O)cc(OCC(=O)NCCc4ccccc4F)cc3O2)cc1O (stereo not drawn)", 92]
]}

Now for the compound whose viability at 48 h, 10 µM we want.
// query viability at 48 h, 10 µM value for entry COc1ccc(C2CC(=O)c3c(O)cc(OCC(=O)NCCc4ccccc4Cl)cc3O2)cc1O (stereo not drawn)
94.4

* * *

target: Aβ (1–42) (Homo sapiens, UniProt P05067); test: Inhibition of self-mediated Aβ (1–42) aggregation (thioflavin T fluorescence assay)
Sequence (P05067 672-713): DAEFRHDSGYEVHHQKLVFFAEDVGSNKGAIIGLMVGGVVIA
Recorded Metric: pIC50
The scale used: pIC50 is minus the common logarithm of the concentration in molar units.

Fill blank: measured pIC50 of the compound COc1ccc([C@@H]2CC(=O)c3c(O)cc(OCC(=O)NCc4ccc(C(F)(F)F)cc4)cc3O2)cc1O [Compound 4f] is ____.
5.07

* * *

assay: in vitro; details: human
# viability at 48 h, 1 µM annotations
The response must be a number in % with no trailing unit.

Study these solved cases before continuing.
{"columns": ["Compound", "Reading Unit", "viability at 48 h, 1 µM"],
 "data": [
  ["COc1ccc(C2CC(=O)c3c(O)cc(OCC(=O)NCc4ccc(F)cc4)cc3O2)cc1O (stereo not shown) [Compound 4c]", "%", 98.5],
  ["COc1ccc(C2CC(=O)c3c(O)cc(OCC(=O)NCc4ccc(Cl)cc4)cc3O2)cc1O (stereo not shown) [Compound 4b]", "%", 103],
  ["COc1ccc(C2CC(=O)c3c(O)cc(OCC(=O)NCc4ccccc4F)cc3O2)cc1O (stereo not shown) [Compound 4h]", "%", 100],
  ["COc1ccc(C2CC(=O)c3c(O)cc(OCC(=O)NCCc4ccccc4Cl)cc3O2)cc1O (stereo not shown) [Compound 4p]", "%", 99.3],
  ["COc1ccc(C2CC(=O)c3c(O)cc(OCC(=O)NCCc4ccc(Cl)cc4)cc3O2)cc1O (stereo not shown) [Compound 4m]", "%", 102]
]}

Give its viability at 48 h, 1 µM value. Item: COc1ccc(C2CC(=O)c3c(O)cc(OCC(=O)NCc4ccc(Br)cc4)cc3O2)cc1O (stereo not shown) [Compound 4d]
99.9

What do you get for COc1ccc(C2CC(=O)c3c(O)cc(OCC(=O)NCc4ccco4)cc3O2)cc1O (stereo not shown) [Compound 4t] ?
99.9

Now give it for COc1ccc(CCNC(=O)COc2cc(O)c3c(c2)OC(c2ccc(OC)c(O)c2)CC3=O)cc1 (stereo not shown) [Compound 4l] too.
98.9

* * *

Measured inhibition at 20 µM, listed per entry for reference.
molecular target: Aβ (1–42) (Homo sapiens, UniProt P05067); assay: Inhibition of self-mediated Aβ (1–42) aggregation (thioflavin T fluorescence assay); settings: read-out: Aβ (1–42) aggregation inhibition rate
// units = %; emit number, no label

Before answering, review these 3 worked examples.
{"columns": ["Compound", "Reading Unit", "Value Reported"],
 "data": [
  ["COc1ccc(C2CC(=O)c3c(O)cc(OCC(=O)NCc4ccco4)cc3O2)cc1O (stereo not shown) [Compound 4t]", "%", 70.8],
  ["COc1ccc([C@@H]2CC(=O)c3c(O)cc(OCC(=O)NCc4ccc(C(F)(F)F)cc4)cc3O2)cc1O [Compound 4f]", "%", 76.3],
  ["COc1ccc(C2CC(=O)c3c(O)cc(OCC(=O)NCc4ccccc4)cc3O2)cc1O (stereo not shown) [Compound 4a]", "%", 73.2]
]}

Next up:
Param item = COc1ccc(C2CC(=O)c3c(O)cc(OCC(=O)NCc4ccncc4)cc3O2)cc1O (stereo not shown) [Compound 4s] ; retrieve measured inhibition at 20 µM.
72

* * *

molecular target: BuChE (Equus caballus); construct: purchased Aladdin B128570-2KU; host or cells: equine serum; experiment: biochemical
Sequence (P81908 whole entry): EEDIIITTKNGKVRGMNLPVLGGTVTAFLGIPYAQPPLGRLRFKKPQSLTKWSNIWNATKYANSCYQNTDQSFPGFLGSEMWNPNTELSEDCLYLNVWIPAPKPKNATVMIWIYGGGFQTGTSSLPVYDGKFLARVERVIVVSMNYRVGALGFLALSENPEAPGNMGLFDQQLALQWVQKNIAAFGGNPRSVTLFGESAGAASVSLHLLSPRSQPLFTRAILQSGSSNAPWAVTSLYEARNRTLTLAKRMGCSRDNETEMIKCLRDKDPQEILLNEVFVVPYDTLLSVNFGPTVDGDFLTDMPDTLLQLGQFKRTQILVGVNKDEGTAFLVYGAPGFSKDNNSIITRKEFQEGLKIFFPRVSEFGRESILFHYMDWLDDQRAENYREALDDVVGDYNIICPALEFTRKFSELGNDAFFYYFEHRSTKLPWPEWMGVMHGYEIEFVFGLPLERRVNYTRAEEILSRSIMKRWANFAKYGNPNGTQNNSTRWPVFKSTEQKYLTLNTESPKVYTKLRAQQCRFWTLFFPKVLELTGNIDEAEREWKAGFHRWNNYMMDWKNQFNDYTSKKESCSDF
Recorded Metric: IC50 (µM)
The reply should be a number in µM, with the unit left off.

Need IC50 of "COc1ccc([C@@H]2CC(=O)c3c(O)cc(O)cc3O2)cc1O" , thanks.
2.9

* * *

Below, each entry is listed alongside its reported viability at 48 h, 1 µM.
experiment: in vitro; conditions: human
Your answer should be a plain number; it is taken to be in %.

{"columns": ["Compound", "Reading Unit", "Value Reported"],
 "data": [
  ["COc1cccc(CNC(=O)COc2cc(O)c3c(c2)OC(c2ccc(OC)c(O)c2)CC3=O)c1 (stereo not drawn)", "%", 103],
  ["COc1ccc([C@@H]2CC(=O)c3c(O)cc(OCC(=O)NCc4ccc(C(F)(F)F)cc4)cc3O2)cc1O", "%", 100],
  ["COc1ccc(C2CC(=O)c3c(O)cc(OCC(=O)NCc4ccccc4Cl)cc3O2)cc1O (stereo not drawn)", "%", 97.8],
  ["COc1ccc(C2CC(=O)c3c(O)cc(OCC(=O)NCc4ccccc4)cc3O2)cc1O (stereo not drawn)", "%", 98.2],
  ["COc1ccc(C2CC(=O)c3c(O)cc(OCC(=O)NCc4ccncc4)cc3O2)cc1O (stereo not drawn)", "%", 101]
]}

Next, consider the following compound.
Which viability at 48 h, 1 µM value belongs to COc1ccc(C2CC(=O)c3c(O)cc(OCC(=O)NCCc4ccccc4F)cc3O2)cc1O (stereo not drawn) ?
99

* * *

experiment: in vitro; details: human
Recorded Metric: viability at 48 h, 50 µM

Some solved cases for reference:
{"columns": ["Molecule", "Recorded Metric", "Value Reported"],
 "data": [
  ["COc1ccc(C2CC(=O)c3c(O)cc(OCC(=O)NCc4ccccc4F)cc3O2)cc1O (centres unmarked) [Compound 4h]", "viability at 48 h, 50 µM", "75.8%"],
  ["COc1ccc(C2CC(=O)c3c(O)cc(OCC(=O)NCc4ccc(Cl)cc4)cc3O2)cc1O (centres unmarked) [Compound 4b]", "viability at 48 h, 50 µM", "83.7%"],
  ["COc1ccc(C2CC(=O)c3c(O)cc(OCC(=O)NCc4ccccc4)cc3O2)cc1O (centres unmarked) [Compound 4a]", "viability at 48 h, 50 µM", "81.4%"],
  ["COc1ccc(CNC(=O)COc2cc(O)c3c(c2)OC(c2ccc(OC)c(O)c2)CC3=O)cc1 (centres unmarked) [Compound 4e]", "viability at 48 h, 50 µM", "87.1%"],
  ["COc1ccc(C2CC(=O)c3c(O)cc(OCC(=O)NCc4ccc(Br)cc4)cc3O2)cc1O (centres unmarked) [Compound 4d]", "viability at 48 h, 50 µM", "86.2%"]
]}

// lookup viability at 48 h, 50 µM for COc1ccc(C2CC(=O)c3c(O)cc(OCC(=O)NCc4ccco4)cc3O2)cc1O (centres unmarked) [Compound 4t]
81.8%

Lookup COc1ccc(C2CC(=O)c3c(O)cc(OCC(=O)NCc4ccccc4Cl)cc3O2)cc1O (centres unmarked) [Compound 4g]
79.3%

Moving on to COc1ccc([C@@H]2CC(=O)c3c(O)cc(O)cc3O2)cc1O [Hesperetin, hesperetin]
85.2%

* * *

target: BuChE (Equus caballus); construct: purchased Aladdin B128570-2KU; host or cells: equine serum; assay: biochemical; conditions: BuChE from equine serum; means ± SEM of three experiments; read-out: BuChE Inhibition, (IC50)
A collection of molecules and their measured IC50
Report only the number, with the unit nM understood.

Can you share its IC50? I mean this molecule: COc1ccc(C2CC(=O)c3c(O)cc(OCC(=O)NCCc4cccc(Cl)c4)cc3O2)cc1O (stereo not shown)
3030
